Origin of the recorded values: patent US20150118233A1

Target: hRSV FTM- NN protein (membrane anchorless form of the Long fusion protein, 70 kDa) (hRSV strain Long)
Test: competition ELISA on coated FTM- NN; competitor biotinylated Synagis Fab
hey, just use rule met if measured EC50 is less than 4 nM, otherwise rule not met

Regarding Nanobody 7B2 (VHH) VHH: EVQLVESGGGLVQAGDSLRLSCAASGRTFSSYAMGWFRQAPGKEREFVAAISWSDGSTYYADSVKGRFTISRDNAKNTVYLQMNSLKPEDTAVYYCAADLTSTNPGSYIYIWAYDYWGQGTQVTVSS , kindly confirm whether its EC50 is beneath 4 nM.
rule met

Dear reviewer, please state whether Nanobody NC23 (VHH) VHH: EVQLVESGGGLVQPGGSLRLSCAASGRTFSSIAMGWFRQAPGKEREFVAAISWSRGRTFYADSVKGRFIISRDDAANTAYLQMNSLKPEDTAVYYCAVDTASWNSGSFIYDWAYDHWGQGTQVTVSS has EC50 strictly beneath 4 nM.
rule met

I wonder whether Nanobody 191D3 (VHH) VHH: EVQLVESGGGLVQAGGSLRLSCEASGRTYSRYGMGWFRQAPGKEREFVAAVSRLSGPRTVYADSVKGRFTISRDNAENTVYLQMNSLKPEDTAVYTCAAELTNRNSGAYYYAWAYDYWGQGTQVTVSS has EC50 below 4 nM. Can you tell?
rule not met

Criterion: EC50 strictly below 4 nM. Is it met by Nanobody 1E4 (VHH) VHH: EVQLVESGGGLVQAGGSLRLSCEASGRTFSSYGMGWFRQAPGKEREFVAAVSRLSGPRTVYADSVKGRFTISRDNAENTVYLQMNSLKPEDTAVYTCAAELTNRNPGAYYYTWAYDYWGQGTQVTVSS ?
rule not met

Consider the binder Nanobody NC41 (VHH) VHH: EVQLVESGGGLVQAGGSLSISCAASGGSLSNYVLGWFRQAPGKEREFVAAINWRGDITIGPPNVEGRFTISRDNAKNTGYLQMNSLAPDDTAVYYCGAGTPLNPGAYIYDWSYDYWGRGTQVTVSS . Is its EC50 strictly less than 4 nM?
rule not met

Strictly below 4 nM in EC50? Nanobody 15H8 (VHH) VHH: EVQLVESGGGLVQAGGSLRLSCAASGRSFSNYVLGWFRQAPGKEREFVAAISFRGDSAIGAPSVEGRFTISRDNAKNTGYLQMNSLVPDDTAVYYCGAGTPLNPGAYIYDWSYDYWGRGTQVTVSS
rule not met
